# Species: Homo sapiens
# assay info: Inhibition of PDK (unknown origin) using RYHGHSMSDP as substrate at 1 uM after 30 mins by Kinase-Glo luminescent assay
MET means recorded inhibition is 40% or above; NOT MET means it is below 40%.

See these solved cases before continuing.
INSERT INTO results (sample_smiles, class) VALUES
  ('O=C(c1ccc(Nc2ccc(F)cc2)c([N+](=O)[O-])c1)C(Cl)Cl', 'MET'),
  ('O=C(c1ccc(N2CCOCC2)c([N+](=O)[O-])c1)C(Cl)Cl', 'NOT MET'),
  ('O=C(c1ccc(NC2CC2)c([N+](=O)[O-])c1)C(Cl)Cl', 'NOT MET'),
  ('Cc1ccc(Nc2ccc(C(=O)C(Cl)Cl)cc2[N+](=O)[O-])cc1', 'MET');

**Q:** Evaluate O=C(c1ccc(-c2ccc(F)cc2)c([N+](=O)[O-])c1)C(Cl)Cl : inhibition at minimum 40%?
**A:** NOT MET

**Q:** Evaluate CC(C)(CO)c1ccc(Nc2ccc(C(=O)C(Cl)Cl)cc2[N+](=O)[O-])cc1 : inhibition at minimum 40%?
**A:** MET

**Q:** Evaluate Cc1ccc(-c2ccc(C(=O)C(Cl)Cl)cc2[N+](=O)[O-])cc1 : inhibition at minimum 40%?
**A:** NOT MET

**Q:** Evaluate COc1ccc(Nc2ccc(C(=O)C(Cl)Cl)cc2[N+](=O)[O-])cc1 : inhibition at minimum 40%?
**A:** MET

**Q:** Evaluate O=C(c1ccc(N2CCCC2)c([N+](=O)[O-])c1)C(Cl)Cl : inhibition at minimum 40%?
**A:** NOT MET

**Q:** Evaluate O=C(c1ccc(-n2ccnc2)c([N+](=O)[O-])c1)C(Cl)Cl : inhibition at minimum 40%?
**A:** NOT MET

----------
Recorded IC50 for the following compounds
# Tested on: A549
# assay info: Antiproliferative activity against human A549 cells assessed as growth inhibition after 72 hrs by MTT assay
# Format: functional, cell-based
# condition parameters: Homo sapiens, A549, 72 h; read-out: IC50
A number alone suffices; assume µM.

Sample answers from the record:
INSERT INTO results (compound, test_system, assay_metric, measurement_unit, result_number) VALUES
  ('O=C([O-])C(Cl)Cl.[Na+] [SODIUM DICHLOROACETATE]', 'A549', 'IC50', 'µM', 19500),
  ('CC(C)(O)c1ccc(Nc2ccc(C(=O)C(Cl)Cl)cc2[N+](=O)[O-])cc1', 'A549', 'IC50', 'µM', 3.1);

**Q:** Could you tell me which IC50 is on file for CC(C)c1ccc(Nc2ccc(C(=O)C(Cl)Cl)cc2[N+](=O)[O-])cc1 ?
**A:** 0.33

**Q:** Could you tell me which IC50 is on file for CC(C)(C)c1ccc(Nc2ccc(C(=O)C(Cl)Cl)cc2[N+](=O)[O-])cc1 ?
**A:** 1.2

**Q:** Could you tell me which IC50 is on file for O=C(c1ccccc1)C(Cl)Cl ?
**A:** 18.7

**Q:** Could you tell me which IC50 is on file for CC(C)Oc1ccc(C(=O)C(Cl)Cl)cc1[N+](=O)[O-] ?
**A:** 3.5

**Q:** Could you tell me which IC50 is on file for CC(C)(CO)c1ccc(Nc2ccc(C(=O)C(Cl)Cl)cc2[N+](=O)[O-])cc1 ?
**A:** 3.2
